src = PubChem BioAssay AID652104

- PROCEDURE_TEXT: qHTS of TDP-43 Inhibitors; also: nearly all actives have a fitted effect of over 50% in size
- ASSAY_CONDITIONS: TDP-43 expressing yeast growth rescue, BacTiter-Glo, 24 h; series mostly up to 46.1 µM
About 7,200 (1.8%) of roughly 410,000 compounds were called active. Inconclusive results (about 7%) are left out. Calls follow the shape of the dose curve; as a rule, active = well fitted activation curve with a large enough effect; inconclusive = small, poorly fitted or top-dose-only effect, or another doubt; inactive = no such curve, though single readings can be large or run the other way. Only a selection was taken, and actives are over-represented in it overall.
Labels: true (active), false (inactive)

MOLECULE | ASSIGNED_LABEL
COc1ccc(OC)c(C(=O)c2ccc(Cl)cc2)c1 | true
COc1ccc(OC)c(C(=O)c2ccc(C(=O)N3CCN(Cc4csc(C)n4)CC3)cc2)c1 | false
COc1cc(CN(CC2CCCO2)C(=O)c2ccccc2F)cc(OC)c1OC (stereo not given) | false
COc1ccc(CCNc2nc(-c3ccc(F)cc3)cc(C(F)(F)F)n2)cc1OC | false
COc1ccc(-c2cc(C(F)(F)F)nc(S(C)(=O)=O)n2)cc1OC | true

###

- PROCEDURE_TEXT: qHTS of TDP-43 Inhibitors; also: nearly all actives have a fitted effect of over 50% in size
- ASSAY_CONDITIONS: TDP-43 expressing yeast growth rescue, BacTiter-Glo, 24 h; series mostly up to 46.1 µM
Among all 410,000 compounds or so, about 7,200 (1.8%) were called active. Inconclusive results (about 7%) are left out. The call rests on the fitted dose curve; in most records, active means well fitted activation curve with a large enough effect; inconclusive means small, poorly fitted or top-dose-only effect, or another doubt; inactive means no such curve, though single readings can be large or run the other way. The sample as a whole holds a higher share of actives than the screen did.
Labels: YES (active), NO (inactive)

COMPOUND | ASSIGNED_LABEL
CC1CN(C(=O)c2cc(COc3c(F)cccc3F)on2)CCN1C (configuration not stated) | NO
Cc1ccc(S(=O)(=O)N(Cc2nc(-c3ccc(Cl)cc3)no2)C2CCCCC2)cc1 | NO
CN(c1ccccc1)S(=O)(=O)c1cccc(C(=O)NNC(=O)c2ccncc2)c1 | NO
CCCCCC(O)c1cccc(OCc2ccc3ccccc3n2)c1 (configuration not stated) | YES
O=C(CCc1nc(CN2CCN(S(=O)(=O)c3ccc(Br)cc3)CC2)no1)N1CCCCC1 | NO
CC1CC2=C(CC1/C=N/NC(N)=S)C(C)(C)CCC2 (configuration not stated) | YES
O=C(COc1ccc2ccccc2c1)N1CCN(C(=O)c2cccs2)CC1 | NO
CC1CCCN(c2nc3c(S(=O)(=O)c4ccc(C(C)C)cc4)nnn3c3ccsc23)C1 (configuration not stated) | NO
Cc1cccc(CSc2nc3ccncc3n2Cc2ccc(C(=O)O)cc2)c1 | NO
CCOc1ccc(/C=N/OCC(=O)NCc2cccs2)cc1 | YES
O=C(c1cc(COc2cccc(C(F)(F)F)c2)on1)N1CCSCC1 | YES
COC(=O)c1ccc2nc(-c3ccc(C)cc3)c(Cc3ccc(OC)cc3C)n2c1 | NO
CN(c1ccccc1)S(=O)(=O)c1cc(C(=O)Nc2nc3ccccc3[nH]2)ccc1Cl | YES
O=C(Nc1nnc(S(=O)(=O)N2CCCc3ccccc32)s1)c1cccc(F)c1 | NO
CCN1CCN(CCCNC(=O)c2ccc3c(c2)sc2nc(-c4ccc(OC)cc4)cn23)CC1 | NO
CCOc1ccc(-n2c(SCC(=O)NCc3ccccc3)nc3n[nH]c(C)c3c2=N)cc1 | NO
O=C(Nc1ccc2nc(SCC(=O)N3CCCc4ccccc43)sc2c1)c1ccc(Cl)cc1 | NO
COc1ccccc1NC(=O)c1oc2ccccc2c1NC(=O)C(C)C | NO
COc1ccc2c(c1)CCC/C2=N\OC(=O)c1ccccc1F | YES
CN(c1ccccc1)S(=O)(=O)c1cc(C(=O)OCC(=O)N2CCN(C(=O)c3ccco3)CC2)ccc1Cl | NO
CCOc1ccc(-c2cc(C)n3nc(C(=O)Nc4ccc(C)c(C)c4)cc3n2)cc1 | NO
COc1ccccc1CNC(=O)C(Cc1ccccc1)NS(=O)(=O)c1ccc2c(c1)oc(=O)n2C (configuration not stated) | NO
O=C(O)CCC(=O)NCc1ccc(C(=O)O)cc1 | NO
COc1ccccc1N1CCN(c2ccc(=O)n(CC(=O)NCc3ccc(OC(C)C)cc3)n2)CC1 | NO
CCCCCC(=O)Nc1ccc(-c2cn3cccnc3n2)cc1 | NO
Cc1cc2ccccc2n1CCNC(=O)COc1ccc2ccccc2c1 | YES
CCCCCc1ccc(-c2ccc(OCC)cc2)nc1 | YES
O=C(CCn1c(=O)c2sccc2n(Cc2ccc(F)cc2)c1=O)NCc1ccc2c(c1)OCO2 | NO
Cc1ccc(C(=O)Nc2c(C(=O)NC(C)(C)C)oc3ccccc23)cc1 | NO
CCN(CCCNC(=O)CSc1cc(=O)n(C)c2cc(Cl)ccc12)c1cccc(C)c1 | NO
O=C(/C=C/c1ccccc1)N1CCN(Cc2cc(=O)n3nc(-c4ccccc4F)sc3n2)CC1 | NO
COc1ccc(CCN2C(=O)N(c3cccc(OC)c3)C(=O)C2CC(=O)Nc2ccccc2)cc1 (configuration not stated) | NO
COc1cccc(C(O)c2ncc(-c3ccc4ccccc4c3)[nH]2)c1 (configuration not stated) | NO
COc1cccc2c1cc1c(=O)n(CC(=O)N3CCN(c4cccc(Cl)c4)CC3)nc(C)n12 | NO
Cc1cccc2c(=O)cc(CSc3ccccc3NC(=O)C(C)C)[nH]c12 | NO
CCCCCc1ccc(-c2ccc(C(=O)O)cc2)nc1 | YES
CC(C)Oc1ccc(CNC(=O)C2CCN(c3nc4ccccc4n(C)c3=O)CC2)cc1 | NO
Cc1nc2ccc(S(=O)(=O)NC(C(=O)NCc3ccccc3Cl)C(C)C)cc2s1 (configuration not stated) | NO
COc1ccc2c(c1)CCc1c(C(=O)N3CCCC3)noc1-2 | NO
Cc1ccc2nc(-c3ccc(O)cc3)c(Nc3ccc4c(c3)OCO4)n2c1 | NO
Cc1cccc(CCNC(=O)c2ccc3c(c2)nc2n3CCC(C)C2)c1 (configuration not stated) | NO
CSCc1cc(N(C)C)nc(SCc2ccc(Cl)cc2Cl)n1 | NO
